procedure-summary: mitochondrial membrane potential change in A549 cells, profiling panel, cell-based, JC-1 fluorescence, basal, 24 h, 100 nL (AID 1138);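 note: A549 lung adenocarcinoma cells under basal conditions with no added stimulus; test concentration not given here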
study-conditions: higher = more signal
assay-endpoint: z-score
Form field (numeric): enter value without unit.

## Input In one line, give reported z-score of the entry "C[C@@H]1ON(c2ccc(C(=O)OC(C)(C)C)cc2)[C@H](c2ccc(Br)cc2)[C@H]1C(=O)N1C(=O)OC[C@H]1Cc1ccccc1" .
## Output 1.59

## Input Supply reported z-score belonging to this molecule: CCOc1cc(C(O)C2C=CC3C(=O)N(C)C(=O)C3N2N2CCCCC2)ccc1O (stereo not drawn)
## Output -0.634

## Input Give the reported value of z-score for this record: C=CCC(OC(C)=O)[C@@H]1[C@@H](N(Cc2cc3ccccc3o2)C(=O)c2ccc(C)cc2)c2cc(OCCCO)ccc2N1C(=O)Cc1ccc2ccccc2c1 (stereo partly drawn)
## Output 1.91
